Provenance of the data: patent US8129537B2

assay-readout: melting point

>>> experimental_result("COc1ccc(C(=O)Nc2c(Cl)cc(N)cc2Cl)cc1OC1CCCC1")
"170 to 172 °C"
>>> experimental_result("COc1cc(F)c(C(=O)Nc2c(Cl)cncc2Cl)cc1OC1CCCC1")
"143 to 144 °C"
>>> experimental_result("Cc1ncc(C(=S)Nc2c(Cl)cncc2Cl)cc1OC(C)C")
"167 to 168 °C"
>>> experimental_result("COc1cnc(C(=O)Cc2c(Cl)cncc2Cl)cc1OC1CCCC1")
"132 °C"
>>> experimental_result("COc1ccc(C(=O)Nc2c(Cl)cncc2Cl)nc1OC1CCCC1")
"164 to 166 °C"
>>> experimental_result("O=C(Nc1c(Cl)cncc1Cl)c1cc(OC2CCCC2)c(OC(F)F)cn1")
"131 to 132 °C"
>>> experimental_result("COc1ncc(C(=O)Nc2c(Cl)cncc2Cl)cc1OC1CCCC1")
"182 to 183 °C"
>>> experimental_result("COc1ccc(C(=O)Nc2c(Cl)cncc2Cl)cc1OC1CC=CC1")
"193 to 195 °C"
>>> experimental_result("COc1ccc(C(=O)Nc2c(Cl)cc(CO)cc2Cl)cc1OC1CCCC1")
"174 to 176 °C"
>>> experimental_result("COc1cnc(C(=O)Nc2c(Cl)cncc2Cl)cc1OC1CCCC1")
"129 to 130 °C"
>>> experimental_result("Cc1ncc(C(=S)Nc2c(Cl)cncc2Cl)cc1OC1CCCC1")
"144 to 145 °C"
>>> experimental_result("COc1ccc(C(=O)C(=O)c2ccncc2)cc1OC1CCCC1")
"117 to 119 °C"
>>> experimental_result("COc1cc(F)c(C(=O)Cc2c(Cl)cncc2Cl)cc1OC1CCCC1")
"115 to 116.5 °C"
>>> experimental_result("COc1ccc(C(=O)Nc2c(Cl)cncc2Cl)cc1OC1C=CCC1 (racemic)")
"177 to 178 °C"
>>> experimental_result("COc1ccc(C(=O)Nc2c(Cl)cc(NC(C)=O)cc2Cl)cc1OC1CCCC1")
"250 to 252 °C"
>>> experimental_result("COc1c[n+]([O-])c(C(=O)Nc2c(Cl)cncc2Cl)cc1OCC1CC1")
"178 to 180 °C"
>>> experimental_result("COc1ncc(C(=O)Nc2c(F)cncc2F)cc1OC1CCCC1")
"210 to 211 °C"
>>> experimental_result("COc1ncc(C(=O)Nc2c(C)noc2C)cc1OC1CCCC1")
"139 to 140 °C"
>>> experimental_result("COc1ncc(C(=O)Cc2c(Cl)cncc2Cl)cc1OC1CCCC1")
"118 to 119 °C"
>>> experimental_result("COc1ccc(C(=O)Nc2ccccc2S(C)(=O)=O)cc1OC1CCCC1")
"119 to 121 °C"
>>> experimental_result("COc1ccc(C(=O)Nc2c(Cl)cc(C=O)cc2Cl)cc1OC1CCCC1")
"96 to 98 °C"
>>> experimental_result("COc1ccc(/C=C/c2c(Cl)cccc2Cl)cc1OC1CCCC1")
"47 to 49 °C"
>>> experimental_result("CSc1ncc(C(=O)Cc2c(Cl)cncc2Cl)cc1OC(C)C")
"124 to 125 °C"
>>> experimental_result("COc1ncc(C(=O)Nc2c(Cl)cccc2Cl)cc1OC1CCCC1")
"145 to 146 °C"
